Kindly supply the reported pKi values for the records listed here.
- testSystem: delta-opioid receptor (DOR) (Rattus norvegicus)
- Construct: Rat cortices were homogenized using 50 mM Tris, pH 7.4, 10 mM MgCl2-6H2O, 200 µM PMSF; from tissue; host or cells: rat cortex membranes
- Sequence (P33533 whole entry): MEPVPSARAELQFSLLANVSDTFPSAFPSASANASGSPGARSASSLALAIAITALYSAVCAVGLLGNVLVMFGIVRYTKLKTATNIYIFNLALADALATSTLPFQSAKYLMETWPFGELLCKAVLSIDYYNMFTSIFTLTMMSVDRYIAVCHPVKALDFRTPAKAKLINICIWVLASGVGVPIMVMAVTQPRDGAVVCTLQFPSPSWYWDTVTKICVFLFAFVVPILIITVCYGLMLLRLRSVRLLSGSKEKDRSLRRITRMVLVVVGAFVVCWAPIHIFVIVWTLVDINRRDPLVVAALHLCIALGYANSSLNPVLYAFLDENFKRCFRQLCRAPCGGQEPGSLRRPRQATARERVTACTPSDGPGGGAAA
- testName: DOR radioligand competition binding assay ([3H]-DPDPE)
- setupConditions: Delta screening results, mean of both Ki; unit inferred; read-out: MEAN (Ki)
API: returns pKi as number; meaning -log10 of concentration in mol/L.

Exam item: Fill in: pKi of `CC(C)C[C@@H](CN1C(=N)NC[C@@H]1Cc1ccc(O)cc1)N1C[C@H](Cc2ccccc2)NC1=N` is ___
Marked response: 4.52

Exam item: Next compound up: `Cc1cc(O)cc(C)c1C[C@H]1CN([C@@H](Cc2c(C)cc(O)cc2C)CN2C(=N)NC[C@@H]2Cc2c(C)cc(O)cc2C)C(=N)N1`
Marked response: 6.24

Exam item: Next compound up: `Cc1cc(O)cc(C)c1C[C@H]1CN([C@@H](Cc2ccc(O)cc2)CN2C(=N)NC[C@@H]2Cc2ccccc2)C(=N)N1`
Marked response: 6.06

Exam item: Next compound up: `Cc1cc(O)cc(C)c1C[C@H]1CN([C@@H](Cc2ccccc2)CN2C(=N)NC[C@@H]2C)C(=N)N1`
Marked response: 5.45

Exam item: Next compound up: `Cc1cc(O)cc(C)c1C[C@H]1CNC(=N)N1C[C@H](CC(C)C)N1C[C@H](Cc2ccc(O)cc2)NC1=N`
Marked response: 6.05

Exam item: Next compound up: `N=C1NC[C@H](Cc2ccc(O)cc2)N1C[C@H](Cc1ccc(O)cc1)N1C[C@H](Cc2ccccc2)NC1=N`
Marked response: 5.11

Exam item: Next compound up: `Cc1cc(O)cc(C)c1C[C@H]1CN([C@@H](Cc2ccccc2)CN2C(=N)NC[C@@H]2Cc2ccc(O)cc2)C(=N)N1`
Marked response: 6.07

Exam item: Next compound up: `Cc1cc(O)cc(C)c1C[C@H]1CNC(=N)N1C[C@H](Cc1ccccc1)N1C[C@H](CC(C)C)NC1=N`
Marked response: 5.59

Exam item: Next compound up: `Cc1cc(O)cc(C)c1C[C@H]1CNC(=N)N1C[C@H](Cc1ccc(O)cc1)N1C[C@H](Cc2ccc(O)cc2)NC1=N`
Marked response: 5.48

Exam item: Next compound up: `CC(C)C[C@@H](CN1C(=N)NC[C@@H]1Cc1ccc(O)cc1)N1C[C@H](Cc2ccc(O)cc2)NC1=N`
Marked response: 5.09

Exam item: Next compound up: `Cc1cc(O)cc(C)c1C[C@H]1CN([C@@H](Cc2ccccc2)CN2C(=N)NC[C@@H]2Cc2c(C)cc(O)cc2C)C(=N)N1`
Marked response: 6.26

Exam item: Next compound up: `CC(C)C[C@@H](CN1C(=N)NC[C@@H]1Cc1ccccc1)N1C[C@H](Cc2ccccc2)NC1=N`
Marked response: 5.11

Exam item: Next compound up: `Cc1cc(O)cc(C)c1C[C@H]1CNC(=N)N1C[C@H](CC(C)C)N1C[C@H](CC(C)C)NC1=N`
Marked response: 5.38

Exam item: Next compound up: `CC(C)C[C@H]1CN([C@@H](CC(C)C)CN2C(=N)NC[C@@H]2C)C(=N)N1`
Marked response: 5.10

Exam item: Next compound up: `Cc1cc(O)cc(C)c1C[C@H]1CN([C@@H](Cc2ccc(O)cc2)CN2C(=N)NC[C@@H]2C)C(=N)N1`
Marked response: 5.85
